species on record: Rattus norvegicus; assay: Percent inhibition of AEA (N-arachidonoylethanolamine) metabolism in rat brain homogenates using [3H]anandamide as the labeled substrate.; assay type: functional; design: concentration or dose not given beside the values; conditions: dose or concentration not given here
Label scheme, based on inhibition: low bracket (below 30%), middle bracket (30% to below 50%), high bracket (50% or more)

Before answering, review these 5 worked examples.
> print(dat)
                  structure.notation  qualitative.label
1     CCCCCCCCCCCCCCCC(=O)NC(C)(C)CO        low bracket
2         CCCCCCCCCCCCCCCC(=O)NC(C)C       high bracket
3     CCCCCCCCCCCCCCCC(=O)Nc1ccccc1C     middle bracket
4  CCCCCCCCCCCCCCCC(=O)Nc1ccc(Cl)cc1        low bracket
5          CCCCCCCCCCCCCCCC(=O)NCCBr     middle bracket

QUERY: // return the class label for `C=CCNC(=O)CCCCCCCCCCCCCCC`
RESULT: high bracket

QUERY: // return the class label for `CCCCCCCCCCCCCCCC(=O)NCCCC`
RESULT: low bracket

QUERY: // return the class label for `CCCCCCCCCCCCCCCC(=O)Nc1ccc2ccccc2c1`
RESULT: low bracket

QUERY: // return the class label for `CCCCCCCCCCCCCCCC(=O)NCC`
RESULT: high bracket

====

Would you mind telling me the reported inhibition of each entry?
organism: Rattus norvegicus; assay: Percent inhibition of AEA (N-arachidonoylethanolamine) metabolism in rat brain homogenates using [3H]anandamide as the labeled substrate.; type: functional; design: concentration or dose not given beside the values; conditions: dose or concentration not given here

> print(dat)
           structure.notation  measured.parameter  reported.measurement
1       CCCCCCCCCCCCCCCC(N)=O          inhibition                   51%
2  CCCCCCCCCCCCCCCC(=O)NC1CC1          inhibition                   57%
3  CCCCCCCCCCCCCCCC(=O)NCCCCl          inhibition                   27%
4    CCCCCCCCCCCCCCCC(=O)NCCO          inhibition                   78%

Please state inhibition for every compound in the list that follows.
1. CCCCCCCCCCCCCCCNC(=O)COC(C)=O
2. CCCCCCCCCCCCCCCC(=O)NC(C)(C)C
3. CCCCCCCCCCCCCCCC(=O)NC
4. CCCCCCCCCCCCCCCC(=O)NCC(C)C
5. CCCCCCCCCCCCCCCC(=O)NCc1ccc(C)cc1

RESULT:
1. 87%
2. 0%
3. 100%
4. 6%
5. 100%

Please state inhibition for every compound in the list that follows.
1. CCCCCCCCCCCCCCCC(=O)NCC(=O)OC
2. CCCCCCCCCCCCCCCC(=O)NOC

RESULT:
["100%", "46%"]

====

biological target: Cannabinoid receptor 2 (Homo sapiens) (UniProt P34972); test: Percent inhibition of specific binding of [3H]WIN-55212-2 towards human cannabinoid receptor 2 from Chinese hamster ovary cell membranes at the concentration of 10 uM
Sequence (P34972 whole entry): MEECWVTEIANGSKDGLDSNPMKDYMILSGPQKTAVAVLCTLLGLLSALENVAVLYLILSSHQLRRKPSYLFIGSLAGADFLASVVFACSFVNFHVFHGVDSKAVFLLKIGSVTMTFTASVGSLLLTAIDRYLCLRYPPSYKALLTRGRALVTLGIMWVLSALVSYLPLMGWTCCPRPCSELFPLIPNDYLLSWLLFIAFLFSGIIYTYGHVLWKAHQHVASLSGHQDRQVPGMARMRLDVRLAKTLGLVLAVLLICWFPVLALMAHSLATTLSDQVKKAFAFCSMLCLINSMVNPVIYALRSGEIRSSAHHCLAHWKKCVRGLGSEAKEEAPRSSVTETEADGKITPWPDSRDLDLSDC
measured-parameter: inhibition (%)
Answers are plain numbers, in %.

Example entries and their recorded answers appear below.
> print(dat)
                structure.notation  measured.parameter  reported.measurement
1  CCCCCCCCCCCCCCCC(=O)NCCc1ccccc1          inhibition                   1.3
2       CCCCCCCCCCCCCCCC(=O)NC1CC1          inhibition                  16.3
3      CCCCCCCCCCCCCCCC(=O)NCC(C)C          inhibition                   8.9

Please state inhibition for every compound in the list that follows.
1. CCCCCCCCCCCCCCCC(=O)NCCCCl
2. CCCCCCCCCCCCCCCC(=O)NCCCl
3. CCCCCCCCCCCCCCCC(=O)NCCCC
4. CCCCCCCCCCCCCCCC(=O)NC(C)(C)CO
5. CCCCCCCCCCCCCCCC(=O)N1CCOCC1
6. CCCCCCCCCCCCCCCC(=O)NC(c1ccccc1)c1ccccc1
7. CCCCCCCCCCCCCCCC(=O)NCCCO
8. C=CCNC(=O)CCCCCCCCCCCCCCC

RESULT:
1: 14.3; 2: 13.5; 3: 12.9; 4: 6.7; 5: 4.2; 6: 1.1; 7: 6.4; 8: 7.8

====

target: Cannabinoid receptor 1 (Homo sapiens) (UniProt P21554); experiment: Percent inhibition of specific binding of [3H]CP-55940 towards human cannabinoid receptor 1 from Chinese hamster ovary cell membranes at the concentration of 10 uM
Sequence (P21554 whole entry): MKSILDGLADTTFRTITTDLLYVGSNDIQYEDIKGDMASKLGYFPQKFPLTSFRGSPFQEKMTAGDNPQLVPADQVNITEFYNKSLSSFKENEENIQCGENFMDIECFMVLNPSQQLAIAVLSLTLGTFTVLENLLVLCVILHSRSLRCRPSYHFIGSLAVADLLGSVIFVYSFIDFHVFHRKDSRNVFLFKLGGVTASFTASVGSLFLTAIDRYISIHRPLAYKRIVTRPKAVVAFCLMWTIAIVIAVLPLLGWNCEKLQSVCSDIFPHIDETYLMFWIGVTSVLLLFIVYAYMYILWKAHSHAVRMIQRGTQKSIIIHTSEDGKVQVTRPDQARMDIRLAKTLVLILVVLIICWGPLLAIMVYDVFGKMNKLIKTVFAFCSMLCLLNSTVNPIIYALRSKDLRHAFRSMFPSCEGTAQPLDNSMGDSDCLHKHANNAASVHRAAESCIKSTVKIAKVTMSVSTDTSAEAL
measured-parameter: inhibition (%)
Numbers only, in %.

Please state inhibition for every molecule in the list that follows.
1. CCCCCCCCCCCCCCCC(=O)Nc1ccccc1
2. CCCCCCCCCCCCCCCC(=O)NCc1ccc(OC)cc1

RESULT:
[2.8, 25.4]

Please state inhibition for every molecule in the list that follows.
1. CCCCCCCCCCCCCCCC(=O)N(CC)CC
2. CCCCCCCCCCCCCCCC(=O)Nc1ccccc1C
3. CCCCCCCCCCCCCCCC(=O)NC(C)(C)C
4. CCCCCCCCCCCCCCCC(=O)NCCC

RESULT:
1: 3.3; 2: 4.9; 3: 24.6; 4: 14.4

====

biological target: Cannabinoid receptor 1 (Homo sapiens) (UniProt P21554); test: Percent inhibition of specific binding of [3H]CP-55940 towards human cannabinoid receptor 1 from Chinese hamster ovary cell membranes at the concentration of 10 uM
measured-parameter: inhibition (%)
Answers are plain numbers, in %.

> print(dat)
                         structure.notation  reported.measurement
1  CCCCCCCCCCCCCCCC(=O)NC(c1ccccc1)c1ccccc1                   2.2
2            CCCCCCCCCCCCCCCC(=O)Nc1ccccc1O                  10.8
3         CCCCCCCCCCCCCCCC(=O)Nc1ccc(Cl)cc1                  11.1
4                   CCCCCCCCCCCCCCCC(=O)NOC                  18.1
5          CCCCCCCCCCCCCCCC(=O)Nc1ccc(O)cc1                  44.8
6                   CCCCCCCCCCCCCCCC(=O)NCC                   2.8

Please state inhibition for every compound in the list that follows.
1. CCCCCCCCCCCCCCCC(=O)NCC(=O)OC
2. CCCCCCCCCCCCCCCC(=O)NCCF
3. CCCCCCCCCCCCCCCC(=O)N(C)C
4. CCCCCCCCCCCCCCCC(=O)NCCCC
5. CCCCCCCCCCCCCCCNC(=O)COC(C)=O
6. CCCCCCCCCCCCCCCC(=O)NC

RESULT:
[7.3, 8.2, 0.3, 19.6, 16, 2.5]

QUERY: Consider the compound `CCCCCCCCCCCCCCCC(=O)N1CCOCC1` and give its measured inhibition.
RESULT: 15.5

====

molecular target: Cannabinoid receptor 1 (Homo sapiens); assay: Percent inhibition of specific binding of [3H]CP-55940 towards human cannabinoid receptor 1 from Chinese hamster ovary cell membranes at the concentration of 10 uM
Respond with t for inhibition values of 10% and above, f for values below.

> print(dat)
                    structure.notation  qualitative.label
1                CCCCCCCCCCCCCCCC(N)=O                  t
2      CCCCCCCCCCCCCCCC(=O)NCCc1ccccc1                  t
3       CCCCCCCCCCCCCCCC(=O)NC(C)(C)CO                  t
4     CCCCCCCCCCCCCCCC(=O)Nc1cccc(O)c1                  t
5  CCCCCCCCCCCCCCCC(=O)Nc1ccc2ccccc2c1                  f

QUERY: Decide: inhibition of `CCCCCCCCCCCCCCCC(=O)NCCCCl` >= 10%?
RESULT: t

QUERY: Decide: inhibition of `CCCCCCCCCCCCCCCC(=O)Nc1ccc(C)cc1` >= 10%?
RESULT: f

====

species: Rattus norvegicus; assay: Percent inhibition of AEA (N-arachidonoylethanolamine) metabolism in rat brain homogenates using [3H]anandamide as the labeled substrate.; type: functional; design: concentration or dose not given beside the values; conditions: dose or concentration not given here
measured-parameter: inhibition

> print(dat)
          structure.notation  measured.parameter  reported.measurement
1  CCCCCCCCCCCCCCCC(=O)NCCCl          inhibition                   48%
2  CCCCCCCCCCCCCCCC(=O)NCCCO          inhibition                   61%

QUERY: Consider the compound `CCCCCCCCCCCCCCCC(=O)Nc1ccccc1` and give its measured inhibition.
RESULT: 18%
